FYI, the data here is from ChEMBL document CHEMBL1961873.

Listed here: items and their measured inhibition.
- tested_system: Homeodomain-interacting protein kinase 4 (Homo sapiens);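 note: reported as mean inhibition, part of the GSK PKIS dataset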
- condition_set: at 0.1 µM
Numbers only; they are read as %.

Item: CS(=O)(=O)Nc1ccc(-c2cc(-c3ccccc3)cc(C(N)=O)c2N)cc1 | inhibition: 0.57

COc1ccccc1-c1cc(/C=C2\C(=O)Nc3ncc(Br)cc32)cc(Br)c1O has a reported inhibition of 0.6

Lab book: inhibition of CS(=O)(=O)CCNCc1ccc(-c2ccc3ncnc(Nc4ccc(OCc5cccc(C(F)(F)F)c5)cc4)c3c2)o1 noted as 0.9

Per the record, NS(=O)(=O)c1ccc(N/N=C2\C(=O)Nc3ccc(C(=O)NCc4ccncc4)cc32)cc1 has inhibition of 12.2

Reported inhibition ( COc1c(C(N)=O)cc(-c2ccc(Cl)cc2)cc1-c1ccc(S(N)(=O)=O)cc1 ) = 0.4

Form: compound = NC(=O)c1ccc2c(-c3ccnc(NCCCO)n3)c(-c3ccc(F)cc3)nn2c1 ; inhibition = 5.71

For COc1cccc(-n2ncc3c(N/N=C/c4ccc(C(=O)NCCN(C)C)cc4)ncnc32)c1 the compound record lists inhibition as 49.5

The compound listed as CNC(=O)c1cncc(/C=C/c2ccccc2C)c1 has a reported inhibition of 3.2

Others:
The compound identified as COC(=O)Nc1nc2cc(Oc3ccc(NC(=O)Nc4ccccc4)cc3)ccc2[nH]1 registered its inhibition at 3.11

response.value for CCn1c(-c2nonc2N)nc2cncc(C(=O)NCCNC)c21 (field: inhibition) = -0.44

---

- tested_system: Tyrosine-protein kinase FRK (Homo sapiens);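 note: values are mean inhibition of PTK5 (FRK) kinase activity from the GSK PKIS screening set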
- condition_set: at 0.1 µM
Overview of reported inhibition across a group of molecules:
Provide only the numeric value, understood in %.

Use the examples below as a reference point.
Form: molecule = O=C(O[C@H]1CN[C@H](C#Cc2cc3ncnc(Nc4ccc5c(ccn5Cc5cc(F)ccc5F)c4)c3s2)C1)N1CCOCC1 ; inhibition = 3.08

Recorded inhibition (molecule CN(c1ccc(NC(=O)NCCN2CCOCC2)cc1)c1ccnc(Nc2ccc(CS(C)(=O)=O)cc2)n1 ): 1.69

// inhibition value for COc1ccc(Nc2ncc(-c3ccccc3)o2)cc1OC : -0.09

Input CCN1CCC(C(=O)Nc2n[nH]c3nnc(-c4cccc(F)c4F)cc23)CC1 . Output inhibition: 0.31

Documented inhibition of CNC(=O)c1ncccc1Nc1nc(Nc2cc3c(cc2OC)CCCN3C(=O)CN(C)C)nc2[nH]ccc12 : 2.49

Continuing:
Just so you know, measured inhibition for N#Cc1cccc(Nc2ncc(-c3ccccc3)o2)c1 came out at 0.92

The molecule identified as O=C(O[C@H]1CN[C@H](C#Cc2cc3ncnc(Nc4ccc(OCc5cccc(F)c5)c(Cl)c4)c3s2)C1)N1CCOCC1 registered its inhibition at 3.74

Per the records, this molecule ( CS(=O)(=O)CCNCc1ccoc1-c1ccc2ncnc(Nc3ccc(OCc4ccccc4)cc3)c2c1 ) has inhibition equal to -0.85

For CC1=C(C(=O)Nc2ccc3[nH]nc(C)c3c2)C(c2ccc(C(F)(F)F)cc2)CC(=O)N1 (stereo not given) the molecule record lists inhibition as 1.26

Form field inhibition, entry CCOc1ccc2c(-c3ccnc(Nc4cc(OC)cc(C(F)(F)F)c4)n3)cnn2n1 : -0.17

Form field inhibition, entry CS(=O)(=O)Nc1ccc(-c2cc(-c3ccccc3)cc(C(N)=O)c2N)cc1 : -0.3

N#Cc1ccc2c(-c3ccnc(NC4CC4)n3)c(-c3ccc(F)cc3)nn2c1 yielded inhibition of 1.44

Query O=C1Nc2ccccc2/C1=C1\CCc2cc(O)ccc21 yields inhibition of 2.6

The reported value for COc1ccc(-c2nn3ncccc3c2-c2ccnc(Nc3ccc(F)c(F)c3)n2)cc1 in terms of inhibition is 0.7

For reference, reported inhibition for COC(=O)Nc1nc2cc(Oc3ccc(NC(=O)Nc4ccccc4)cc3)ccc2[nH]1 stands at 1.73

Entry Fc1ccc(Nc2nccc(-c3c(-c4ccc(C(F)(F)F)cc4)nn4ncccc34)n2)cc1F ; inhibition = 0.45

Documented inhibition of Cc1ccc(-c2cc3c(NC(=O)C4CC4)ncnc3o2)cc1 : 2.14

Measured inhibition, NS(=O)(=O)c1ccc(N/N=C2\C(=O)Nc3ccc(C(=O)NCc4ccncc4)cc32)cc1 : 1.15

Value of inhibition reported for the molecule CNC(=O)c1cncc(/C=C/c2ccccc2C)c1 is 1.01

// sample CS(=O)(=O)CCNCc1ccc(-c2ccc3ncnc(Nc4ccc(OCc5cccc(C(F)(F)F)c5)cc4)c3c2)o1 , its inhibition was 2.67

---

- tested_system: Mitogen-activated protein kinase 12 (Homo sapiens) (UniProt P53778);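 note: values are averaged p38gamma kinase inhibition readings, compounds tested at 1 µM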
- Sequence (P53778 whole entry): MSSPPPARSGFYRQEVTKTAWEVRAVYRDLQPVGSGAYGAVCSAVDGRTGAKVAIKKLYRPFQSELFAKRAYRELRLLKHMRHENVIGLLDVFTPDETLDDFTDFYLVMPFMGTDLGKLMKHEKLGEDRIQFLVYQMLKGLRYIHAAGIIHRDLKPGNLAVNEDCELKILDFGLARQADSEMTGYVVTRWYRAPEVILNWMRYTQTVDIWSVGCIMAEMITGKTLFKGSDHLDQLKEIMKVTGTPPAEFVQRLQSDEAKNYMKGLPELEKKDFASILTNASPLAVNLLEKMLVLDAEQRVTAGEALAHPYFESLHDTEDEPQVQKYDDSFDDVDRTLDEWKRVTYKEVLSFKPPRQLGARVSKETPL
- condition_set: at 1 µM
Documented inhibition across a set of compounds
Value expressed in %; do not type the unit.

Known results for compounds:
COc1cc(N2CCN(C(C)C)CC2)ccc1Nc1nc(Nc2cccc3ncccc23)c2cc[nH]c2n1 tested on Mitogen-activated protein kinase 12 (Homo sapiens) (UniProt P53778) gave inhibition: -0.51

Entry CC(C)c1ccc(-c2cc(-c3c[nH]nc3-c3ccccn3)ccn2)cc1 : inhibition on Mitogen-activated protein kinase 12 (Homo sapiens) (UniProt P53778) = 1.41

CCCNc1cccc(-n2ncc3c(N/N=C/c4ccncc4)ncnc32)c1 tested on Mitogen-activated protein kinase 12 (Homo sapiens) (UniProt P53778) gave inhibition: 0.33

More entries:
Entry CNC(=O)c1sc(-n2cnc3cc(OC)c(OC)cc32)cc1OCc1ccccc1C(F)(F)F ; assay system Mitogen-activated protein kinase 12 (Homo sapiens) (UniProt P53778); inhibition recorded at 1.74

So the reported inhibition for CC1(C)CC(n2cnc(-c3ccc(F)cc3)c2-c2ccnc(N)n2)CC(C)(C)N1 , on Mitogen-activated protein kinase 12 (Homo sapiens) (UniProt P53778), turned out to be 2.44

---

- tested_system: Fibroblast growth factor receptor 3 (Homo sapiens);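 note: each value is a mean percent inhibition of FGFR3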
- condition_set: at 0.1 µM
measurement_kind: inhibition (%)
Enter your answer as a number in %; do not include the unit.

Check out these entries, answers already filled in.
Tested on Fibroblast growth factor receptor 3 (Homo sapiens), the item COC(=O)Nc1nc2cc(Oc3ccc(NC(=O)Nc4ccccc4)cc3)ccc2[nH]1 showed inhibition equal to 5.75

The reported Fibroblast growth factor receptor 3 (Homo sapiens) inhibition of CS(=O)(=O)Nc1ccc(-c2ccc3c(NC(=O)C4CC4)n[nH]c3c2)cc1 is 6.11

# CC1(C)CC(n2cnc(-c3ccc(F)cc3)c2-c2ccnc(N)n2)CC(C)(C)N1 with Fibroblast growth factor receptor 3 (Homo sapiens): inhibition is 1.59

Recorded inhibition for CNC(=O)c1sc(-n2cnc3cc(OC)c(OC)cc32)cc1OCc1ccccc1C(F)(F)F on Fibroblast growth factor receptor 3 (Homo sapiens) was 2.02

Kindly consider the entry below.
Reported inhibition (Fibroblast growth factor receptor 3 (Homo sapiens)) for entry Cc1ccc(-c2cc3c(NC(=O)C4CC4)ncnc3o2)cc1 is 5.42

---

Reported inhibition values for the following compounds.
- tested_system: Receptor tyrosine-protein kinase erbB-2 (Homo sapiens);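 note: each value is the mean percent inhibition of ERBB2 over replicate measurements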
- condition_set: at 0.1 µM
Give the value, in units of %, as a plain number.

Please review the following examples before continuing.
// Cn1c(-c2nonc2N)nc2cnccc21 : inhibition value = 4.78

For record NS(=O)(=O)c1ccc(N/N=C2\C(=O)Nc3cccc(CCc4ccncc4)c32)cc1 the listed inhibition is -0.81

Noted for NS(=O)(=O)c1cccc(N/C=C2\C(=O)Nc3ccccc32)c1 : its inhibition reads 1.3

***
The reported value for CCN1CCC(C(=O)Nc2n[nH]c3nnc(-c4cccc(F)c4F)cc23)CC1 in terms of inhibition is 1.2

inhibition for Cc1cc(O)cc(C)c1/C=C/c1cncc(C(N)=O)c1 is 5.08

Form field inhibition, entry N#Cc1ccc2c(-c3ccnc(NC4CC4)n3)c(-c3ccc(F)cc3)nn2c1 : 1.97

---

- tested_system: Ephrin type-A receptor 3 (Homo sapiens) (UniProt P29320);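 note: values are mean inhibition of EPHA3, from the GSK PKIS dataset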
- Sequence (P29320 whole entry): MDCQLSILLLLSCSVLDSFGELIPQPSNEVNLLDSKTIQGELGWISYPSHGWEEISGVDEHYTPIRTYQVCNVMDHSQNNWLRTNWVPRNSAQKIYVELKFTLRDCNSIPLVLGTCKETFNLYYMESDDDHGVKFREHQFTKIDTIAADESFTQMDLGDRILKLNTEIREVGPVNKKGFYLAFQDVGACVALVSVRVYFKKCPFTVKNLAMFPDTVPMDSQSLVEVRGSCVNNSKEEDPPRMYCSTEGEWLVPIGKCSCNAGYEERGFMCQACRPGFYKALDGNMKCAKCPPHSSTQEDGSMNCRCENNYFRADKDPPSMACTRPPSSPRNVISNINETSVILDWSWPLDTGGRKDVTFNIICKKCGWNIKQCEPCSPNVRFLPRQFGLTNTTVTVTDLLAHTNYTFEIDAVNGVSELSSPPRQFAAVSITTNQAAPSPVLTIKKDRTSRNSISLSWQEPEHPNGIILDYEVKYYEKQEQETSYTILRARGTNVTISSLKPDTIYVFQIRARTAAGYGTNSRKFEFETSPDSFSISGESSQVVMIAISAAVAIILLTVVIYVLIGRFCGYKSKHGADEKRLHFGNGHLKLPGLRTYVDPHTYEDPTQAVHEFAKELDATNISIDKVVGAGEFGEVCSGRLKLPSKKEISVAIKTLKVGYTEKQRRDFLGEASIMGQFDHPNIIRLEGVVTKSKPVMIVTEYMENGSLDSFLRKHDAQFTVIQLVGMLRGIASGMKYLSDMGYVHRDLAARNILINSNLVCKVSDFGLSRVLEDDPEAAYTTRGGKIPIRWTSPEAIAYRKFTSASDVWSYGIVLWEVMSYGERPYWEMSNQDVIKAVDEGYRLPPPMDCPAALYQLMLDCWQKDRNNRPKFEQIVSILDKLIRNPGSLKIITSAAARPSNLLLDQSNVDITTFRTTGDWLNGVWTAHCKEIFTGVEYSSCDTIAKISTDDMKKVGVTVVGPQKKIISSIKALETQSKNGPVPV
- condition_set: at 0.1 µM
measurement_kind: inhibition (%)
The figure you give is taken to be in %; do not add the unit.

# inhibition of COc1cc2c(cc1Nc1nc(Nc3cccc(F)c3C(N)=O)c3cc[nH]c3n1)N(C(=O)CN1CCN(C(C)C)CC1)CC2 = 1.47

Form field inhibition, entry CS(=O)(=O)Nc1ccc(-c2ccc3c(NC(=O)C4CC4)n[nH]c3c2)cc1 : 5.15

// recorded inhibition for CNC(=O)c1sc(-n2cnc3cc(OC)c(OC)cc32)cc1OCc1ccccc1C(F)(F)F : 3.26

Notebook: CS(=O)(=O)CCNCc1ccc(-c2ccc3ncnc(Nc4ccc(OCc5cccc(C(F)(F)F)c5)cc4)c3c2)o1 , inhibition read as 2.95

---

- Tested on: Serine/threonine-protein kinase B-raf (Homo sapiens), P15056 [V600E];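 note: enzyme inhibition of the BRAF V599E mutant kinase, given as mean percent inhibition, screened within the GSK PKIS kinase inhibitor set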
- Sequence (P15056 whole entry V600E): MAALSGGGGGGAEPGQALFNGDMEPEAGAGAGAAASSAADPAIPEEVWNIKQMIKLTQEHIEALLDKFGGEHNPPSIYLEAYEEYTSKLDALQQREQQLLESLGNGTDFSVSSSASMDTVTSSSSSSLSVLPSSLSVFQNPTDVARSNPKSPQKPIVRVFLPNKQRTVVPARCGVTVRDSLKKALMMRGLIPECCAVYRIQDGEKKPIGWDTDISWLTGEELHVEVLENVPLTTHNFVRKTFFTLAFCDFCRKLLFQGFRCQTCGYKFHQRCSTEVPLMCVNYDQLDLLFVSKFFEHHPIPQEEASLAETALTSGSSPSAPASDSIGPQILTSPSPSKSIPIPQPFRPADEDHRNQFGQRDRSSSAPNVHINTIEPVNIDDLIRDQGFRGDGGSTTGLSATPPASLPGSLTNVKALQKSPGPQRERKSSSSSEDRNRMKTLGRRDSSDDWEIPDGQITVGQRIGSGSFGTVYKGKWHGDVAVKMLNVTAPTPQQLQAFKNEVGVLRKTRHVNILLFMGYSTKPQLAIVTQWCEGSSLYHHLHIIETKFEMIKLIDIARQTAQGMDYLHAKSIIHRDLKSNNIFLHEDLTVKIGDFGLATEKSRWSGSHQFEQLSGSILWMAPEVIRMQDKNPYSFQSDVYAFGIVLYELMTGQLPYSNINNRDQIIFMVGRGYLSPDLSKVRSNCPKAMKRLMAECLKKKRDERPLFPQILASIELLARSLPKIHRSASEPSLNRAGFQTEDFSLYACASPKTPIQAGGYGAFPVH
- condition_set: at 1 µM
- Description: GSK_PKIS: BRAF (V599E mutant) mean inhibition at 1 uM [Nanosyn]
Decision: inhibition >= 6% yields Criterion met, all other cases yield Criterion not met.

Please review the entries below; each comes with its answer.
## Task Dear colleague, could you confirm whether COc1cc2c(cc1Nc1nc(Nc3cccc(F)c3C(N)=O)c3cc[nH]c3n1)N(C(=O)CN1CCN(C(C)C)CC1)CC2 has inhibition at or above 6%?
## Result Criterion not met

## Task Determine whether measured inhibition meets or exceeds 6% for COc1cccc(Nc2nccc(-c3cnn4ncccc34)n2)c1
## Result Criterion met

API: the following record is the query input.
## Task Hello, I need to know if NS(=O)(=O)c1ccc(N/N=C2\C(=O)Nc3cccc(CCc4ccncc4)c32)cc1 has measured inhibition not below 6%. Thanks!
## Result Criterion not met
